Experimental System: tyrosine kinase receptor MET on HeLa cells (UniProt P08581 25-1390, limits assumed)
Sequence (P08581 25-1390 limits assumed): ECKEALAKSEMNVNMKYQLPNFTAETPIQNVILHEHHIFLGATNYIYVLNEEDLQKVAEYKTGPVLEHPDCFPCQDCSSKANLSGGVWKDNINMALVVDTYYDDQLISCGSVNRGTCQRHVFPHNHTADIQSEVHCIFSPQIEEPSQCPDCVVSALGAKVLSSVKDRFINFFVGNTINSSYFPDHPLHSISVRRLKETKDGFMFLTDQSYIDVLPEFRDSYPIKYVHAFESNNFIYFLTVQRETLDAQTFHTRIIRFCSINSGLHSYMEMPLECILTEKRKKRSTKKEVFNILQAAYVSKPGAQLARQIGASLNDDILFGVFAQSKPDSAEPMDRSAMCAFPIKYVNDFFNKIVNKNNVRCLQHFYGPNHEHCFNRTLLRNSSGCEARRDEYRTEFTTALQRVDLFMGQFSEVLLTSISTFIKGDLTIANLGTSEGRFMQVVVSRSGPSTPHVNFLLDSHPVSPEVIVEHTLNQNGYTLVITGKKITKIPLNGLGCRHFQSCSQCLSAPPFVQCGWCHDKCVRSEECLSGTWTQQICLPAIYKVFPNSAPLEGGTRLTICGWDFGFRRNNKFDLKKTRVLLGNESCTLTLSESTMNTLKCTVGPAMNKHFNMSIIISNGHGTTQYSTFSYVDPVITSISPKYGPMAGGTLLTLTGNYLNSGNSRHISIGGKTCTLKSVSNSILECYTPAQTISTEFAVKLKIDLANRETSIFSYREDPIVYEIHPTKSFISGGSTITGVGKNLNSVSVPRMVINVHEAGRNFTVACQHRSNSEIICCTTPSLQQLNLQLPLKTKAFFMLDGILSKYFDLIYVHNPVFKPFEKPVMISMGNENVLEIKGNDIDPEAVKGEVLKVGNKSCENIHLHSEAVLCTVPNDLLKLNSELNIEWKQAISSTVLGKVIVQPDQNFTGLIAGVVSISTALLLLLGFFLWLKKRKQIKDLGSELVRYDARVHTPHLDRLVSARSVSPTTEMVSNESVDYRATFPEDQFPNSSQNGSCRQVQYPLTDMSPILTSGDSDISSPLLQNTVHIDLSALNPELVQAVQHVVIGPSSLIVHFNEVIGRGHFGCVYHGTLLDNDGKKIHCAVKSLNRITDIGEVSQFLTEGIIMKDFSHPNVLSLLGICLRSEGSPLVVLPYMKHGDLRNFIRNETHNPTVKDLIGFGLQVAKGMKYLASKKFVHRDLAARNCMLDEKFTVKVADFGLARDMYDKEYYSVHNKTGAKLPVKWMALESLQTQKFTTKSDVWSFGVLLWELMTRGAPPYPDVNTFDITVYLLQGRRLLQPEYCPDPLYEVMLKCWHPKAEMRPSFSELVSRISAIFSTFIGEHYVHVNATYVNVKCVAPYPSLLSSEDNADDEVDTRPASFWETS
Method Summary: cell-based or functional assay
Parameter agonist activity against NK1 (ERK and Akt phosphorylation in HeLa cells): see the listing below.

Solved cases below.
Binder	Result
K1K1 variant 2 (long linker variant) (designed binder) MAIRNCIIGKGRSYKGTVSITKSGIKCQPWSSMIPHEHSFLPSSYRGKDLQENYCRNPRGEEGGPWCFTSNPEVRYEVCDIPQCGGGGSLVPRGSGGGGSCIIGKGRSYKGTVSITKSGIKCQPWSSMIPHEHSFLPSSYRGKDLQENYCRNPRGEEGGPWCFTSNPEVRYEVCDIPQCSEVE	≥ 10 times (against NK1)
K1K1 variant 3 (GS-linker variant) (designed binder) MAIRNCIIGKGRSYKGTVSITKSGIKCQPWSSMIPHEHSFLPSSYRGKDLQENYCRNPRGEEGGPWCFTSNPEVRYEVCDIPQCGSGGCIIGKGRSYKGTVSITKSGIKCQPWSSMIPHEHSFLPSSYRGKDLQENYCRNPRGEEGGPWCFTSNPEVRYEVCDIPQCSEVE	≥ 10 times (against NK1)
HGF/SF-K1K1 (C-terminally tagged K1K1 protein, 6xHis tag) (designed binder) MAIRNCIIGKGRSYKGTVSITKSGIKCQPWSSMIPHEHSFLPSSYRGKDLQENYCRNPRGEEGGPWCFTSNPEVRYEVCDIPQCSEVECIIGKGRSYKGTVSITKSGIKCQPWSSMIPHEHSFLPSSYRGKDLQENYCRNPRGEEGGPWCFTSNPEVRYEVCDIPQCSEVEHHHHHH	≥ 10 times (against NK1)

Turning to the following binder.
input: // query agonist activity against NK1 (ERK and Akt phosphorylation in HeLa cells) value for entry K1K1 variant 1 (tagless variant) (designed binder) MAIRNCIIGKGRSYKGTVSITKSGIKCQPWSSMIPHEHSFLPSSYRGKDLQENYCRNPRGEEGGPWCFTSNPEVRYEVCDIPQCSEVECIIGKGRSYKGTVSITKSGIKCQPWSSMIPHEHSFLPSSYRGKDLQENYCRNPRGEEGGPWCFTSNPEVRYEVCDIPQCSEVE
output: ≥ 10 times (against NK1)
